# key: entry, value: pIC50
# Tested on: DU-145 prostate cancer cells
# experimental.protocol: In vitro cytotoxicity against DU-145 prostate cancer cells
# Type: cell-based, human
# test.conditions: DU-145 cells, five days
Kindly note that pIC50 refers to -log10 of the concentration in mol/L and answer with the value alone.

q: Given the molecule "Cc1cc(/C=C/C(=O)/C=C/c2cc(C)no2)on1" , what is its reported pIC50?
a: 7.80

q: Quick check: pIC50 of "Cc1cc(/C=C/C(=O)/C=C/c2cc(C)on2)no1" ?
a: 7.38

q: State the recorded pIC50 for this entry: "CN1CC(=Cc2cnn(C)c2)C(=O)C(=Cc2cnn(C)c2)C1"
a: 2.73

q: Consider the molecule shown here: "CC(C)Cn1ccnc1C=C1CCCC(=Cc2nccn2CC(C)C)C1=O" What is its recorded pIC50?
a: 6.44

---

# System: HeLa cervical cancer cells
# experimental.protocol: HeLa cell viability after treatment with analog (cell count, cell viability analyzer)
# Assay type: cell-based, human
# test.conditions: 1 μM, three days, relative to DMSO vehicle
The threshold is 60%. Values of HeLa Cell viability after treatment with analog (% viability) beneath it are tagged TRUE; values meeting or exceeding it are tagged FALSE.

Previously resolved entries follow.
molecule: O=C(/C=C/c1ccncc1F)/C=C/c1ccncc1F
discrete.label: TRUE
//
molecule: CC(C)n1ccnc1C=C1CCCC(=Cc2nccn2C(C)C)C1=O
discrete.label: FALSE
//
molecule: CN1CC(=Cc2ccnn2C)C(=O)C(=Cc2ccnn2C)C1
discrete.label: FALSE
//
molecule: Cn1nccc1C=C1CCCC(=Cc2ccnn2C)C1=O
discrete.label: FALSE
//
molecule: Cn1cc(C=C2CCCC(=Cc3cnn(C)c3)C2=O)cn1
discrete.label: FALSE

q: Consider "CCCCCCn1ccnc1/C=C/C(=O)/C=C/c1nccn1CCCCCC" . Does its HeLa Cell viability after treatment with analog (% viability) lie strictly below 60%?
a: TRUE

q: # TODO verify HeLa Cell viability after treatment with analog (% viability) < 60% strictly for this molecule: "Cc1cc(C=C2CN(C)CC(=Cc3cc(C)no3)C2=O)on1"
a: FALSE

q: In plain terms, does "CC(C)n1ccnc1C=C1CN(C)CC(=Cc2nccn2C(C)C)C1=O" come in under 60% for HeLa Cell viability after treatment with analog (% viability)?
a: FALSE

q: Criterion: HeLa Cell viability after treatment with analog (% viability) strictly below 60%. Is it met by "Cc1cc(/C=C/C(=O)/C=C/c2cc(C)on2)no1" ?
a: TRUE

q: Report whether reported HeLa Cell viability after treatment with analog (% viability) is lower than 60% (strictly) for "O=C1C(=Cc2nccs2)CCCC1=Cc1nccs1"
a: FALSE

q: I'd appreciate it if you could check whether "O=C1C(=Cc2cscn2)CCCC1=Cc1cscn1" has HeLa Cell viability after treatment with analog (% viability) smaller than 60%.
a: FALSE

q: Is the reported HeLa Cell viability after treatment with analog (% viability) for "CN1CC(=Cc2cnn(C)c2)C(=O)C(=Cc2cnn(C)c2)C1" strictly below 60%?
a: FALSE

q: Given CCC(C)n1ccnc1/C=C/C(=O)/C=C/c1nccn1C(C)CC (centres unmarked) , is recorded HeLa Cell viability after treatment with analog (% viability) strictly lower than 60%?
a: FALSE

q: Regarding CCC(C)n1ccnc1C=C1CN(C)CC(=Cc2nccn2C(C)CC)C1=O (centres unmarked) , kindly confirm whether its HeLa Cell viability after treatment with analog (% viability) is beneath 60%.
a: FALSE

q: hey, is HeLa Cell viability after treatment with analog (% viability) for "CC(C)Cn1ccnc1/C=C/C(=O)/C=C/c1nccn1CC(C)C" lower than 60% or not?
a: TRUE

q: Lab log: compare recorded HeLa Cell viability after treatment with analog (% viability) with 60%; is it strictly lower for "Cc1nc(C=C2CCCC(=Cc3coc(C)n3)C2=O)co1" ?
a: FALSE

---

# Tested on: HeLa cervical cancer cells
# experimental.protocol: HeLa cell viability after treatment with analog (cell count, cell viability analyzer)
# Assay type: cell-based, human
# test.conditions: 10 μM, three days, relative to DMSO vehicle
experimental.endpoint: HeLa Cell viability after treatment with analog (% viability) (%)
Numeric answer only, unit % assumed.

compound.structure: CC(C)Cn1ccnc1C=C1CCCC(=Cc2nccn2CC(C)C)C1=O
result.value: 94.5

q: Reported HeLa Cell viability after treatment with analog (% viability) for "CN1CC(=Cc2cscn2)C(=O)C(=Cc2cscn2)C1" : what is it?
a: 12.0

q: Sample "O=C1C(=Cc2cscn2)CCCC1=Cc1cscn1" — what was its HeLa Cell viability after treatment with analog (% viability)?
a: 15.8

q: Need HeLa Cell viability after treatment with analog (% viability), item "Cc1nc(C=C2CCCC(=Cc3coc(C)n3)C2=O)co1"
a: 59.5

q: Look up HeLa Cell viability after treatment with analog (% viability) for this compound: "Cc1cc(C=C2CN(C)CC(=Cc3cc(C)no3)C2=O)on1"
a: 27.8

---

Measured HeLa Cell viability after treatment with analog (% viability) of individual entries
# System: HeLa cervical cancer cells
# experimental.protocol: HeLa cell viability after treatment with analog (cell count, cell viability analyzer)
# Type: cell-based, human
# test.conditions: 1 μM, three days, relative to DMSO vehicle
Please reply with the bare figure in % and do not write the unit itself.

Illustrative cases are given below, each with its answer.
molecule: Cc1csc(/C=C/C(=O)/C=C/c2nc(C)cs2)n1
value.unit: %
result.value: 52
//
molecule: CC(C)CCn1ccnc1/C=C/C(=O)/C=C/c1nccn1CCC(C)C
value.unit: %
result.value: 3.0
//
molecule: CC(C)Cn1c(/C=C/C(=O)/C=C/c2nc3ccccc3n2CC(C)C)nc2ccccc21
value.unit: %
result.value: 5.72
//
molecule: CC(C)Cn1ccnc1C=C1CCCC(=Cc2nccn2CC(C)C)C1=O
value.unit: %
result.value: 100
//
molecule: O=C(/C=C/c1cscn1)/C=C/c1cscn1
value.unit: %
result.value: 89
//
molecule: O=C(/C=C/c1cncs1)/C=C/c1cncs1
value.unit: %
result.value: 77
//
molecule: CCC(CC)n1ccnc1/C=C/C(=O)/C=C/c1nccn1C(CC)CC
value.unit: %
result.value: 3.4
//
molecule: CCC(C)n1ccnc1C=C1CCCC(=Cc2nccn2C(C)CC)C1=O (stereo not shown)
value.unit: %
result.value: 100
//
molecule: O=C(/C=C/c1nccs1)/C=C/c1nccs1
value.unit: %
result.value: 68

Now take the following molecule into account.
q: Any idea what its HeLa Cell viability after treatment with analog (% viability) is? The molecule is "Cc1nc(/C=C/C(=O)/C=C/c2coc(C)n2)co1"
a: 100

---

# Test system: DU-145 prostate cancer cells
# experimental.protocol: In vitro cytotoxicity against DU-145 prostate cancer cells
# Format: cell-based, human
# test.conditions: DU-145 cells, five days
Listed below: IC50 values for each entry.
Please state the figure in nM; there is no need to write the unit.

Use these answered entries as a reference point.
compound: Cc1cc(/C=C2\CCC/C(=C\c3cc(C)on3)C2=O)no1 [Compound 18]
IC50 (nM): 70

compound: Cc1nc(C=C2CN(C)CC(=Cc3coc(C)n3)C2=O)co1
IC50 (nM): 76

compound: Cn1nccc1/C=C/C(=O)/C=C/c1ccnn1C
IC50 (nM): 160

Now, please, on to the next compound.
q: Given "CC(C)n1ccnc1C=C1CN(C)CC(=Cc2nccn2C(C)C)C1=O" , state its recorded IC50.
a: 140

---

# System: DU-145 prostate cancer cells
# experimental.protocol: In vitro cytotoxicity against DU-145 prostate cancer cells
# Type: cell-based, human
# test.conditions: DU-145 cells, five days
# Procedure: The half maximal inhibitory concentration (IC50) is a measure of the effectiveness of a substance in inhibiting a specific biological or biochemical function. It is commonly used as a measure of antagonist drug potency. Cell numbers were counted with a cell viability analyzer (Beckman-Coulter). A preliminary dose response curve was prepared from the collected data by means well known to those of ordinary skill in the art. […]
experimental.endpoint: IC50 (nM)
Answer format: numeric, nM implied, no suffix.

compound: CN1CC(=Cc2nccs2)C(=O)C(=Cc2nccs2)C1
system.tested: DU-145 prostate cancer cells
value.unit: nM
IC50: 46

q: Request the reported IC50 associated with "CN1CC(=Cc2cscn2)C(=O)C(=Cc2cscn2)C1"
a: 430

q: What does the record list as IC50 for "O=C1C(=Cc2cscn2)CCCC1=Cc1cscn1" ?
a: 75

q: Report IC50 for "CN1CC(=Cc2ccnn2C)C(=O)C(=Cc2ccnn2C)C1" please.
a: 1640

q: What does the data say about its IC50? Entry: "Cn1nccc1C=C1CCCC(=Cc2ccnn2C)C1=O"
a: 730

q: Dear colleague, I am looking for the recorded IC50 of the following compound: "O=C(/C=C/c1cscn1)/C=C/c1cscn1"
a: 96

q: // returns reported IC50 for input "Cc1cc(C=C2CN(C)CC(=Cc3cc(C)no3)C2=O)on1"
a: 690

q: Can you share its IC50? I mean this compound: "CC(C)Cn1ccnc1/C=C/C(=O)/C=C/c1nccn1CC(C)C"
a: 57

q: // lookup IC50 for "Cc1cc(C=C2CCCC(=Cc3cc(C)no3)C2=O)on1"
a: 340

q: Which IC50 is listed for "Cn1cc(C=C2CCCC(=Cc3cnn(C)c3)C2=O)cn1" ?
a: 90000

q: // query IC50 value for entry "O=C1C(=Cc2nccs2)CCCC1=Cc1nccs1"
a: 120

q: Consider the compound "Cc1nc(C=C2CCCC(=Cc3coc(C)n3)C2=O)co1" and give its measured IC50.
a: 1650

q: Consider the compound "CC(C)n1ccnc1C=C1CCCC(=Cc2nccn2C(C)C)C1=O" and give its measured IC50.
a: 100

q: What does the data say about its IC50? Entry: CCC(C)n1ccnc1C=C1CCCC(=Cc2nccn2C(C)CC)C1=O (centres unmarked)
a: 250

Source: patent US9499529B2
